System: PC-3
Assay: Antiproliferative activity against human PC-3 cells assessed as reduction in cell viability after 48 hrs by MTT assay
Format: functional, cell-based
Conditions: PC-3, 48 h
Values of IC50 strictly less than 2000 nM map to fulfilled, and values of at least 2000 nM map to not fulfilled.

// query Criterion: IC50 strictly below 2000 nM. Is it met by C=CCc1ccc(O)c(-c2ccc(O)c(CC=C)c2)c1 [HONOKIOL] ?
// result not fulfilled

// query Hello, I'm reviewing records and need to know if IC50 of COc1cccc2c1C(=O)c1c(O)c3c(c(O)c1C2=O)C[C@@](O)(C(=O)CO)C[C@@H]3O[C@H]1C[C@H](N)[C@H](O)[C@H](C)O1 [DOXORUBICIN] is below 2000 nM. Could you check?
// result fulfilled

// query Strictly below 2000 nM in IC50? C=CCc1ccc(OCCCCCc2c3[n+](cc4c(OC)c(OC)ccc24)CCc2cc4c(cc2-3)OCO4)c(-c2ccc(OC)c(CC=C)c2)c1
// result fulfilled

// query hey, is IC50 for C=CCc1ccc(O)c(-c2ccc(OCCCc3c4[n+](cc5c(OC)c(OC)ccc35)CCc3cc5c(cc3-4)OCO5)c(CC=C)c2)c1 lower than 2000 nM or not?
// result fulfilled

// query Quick check: IC50 of C=CCc1ccc(O)c(-c2ccc(OCCCCCc3c4[n+](cc5c(OC)c(OC)ccc35)CCc3cc5c(cc3-4)OCO5)c(CC=C)c2)c1.[I-] under 2000 nM?
// result not fulfilled

Others:
// query Find out if reported IC50 for C=CCc1ccc(OC)c(-c2ccc(OCCCCCc3c4[n+](cc5c(OC)c(OC)ccc35)CCc3cc5c(cc3-4)OCO5)c(CC=C)c2)c1 is less than 2000 nM
// result fulfilled

// query State whether 2000 nM exceeds IC50 recorded for COc1ccc2cc3[n+](cc2c1OC)CCc1cc2c(cc1-3)OCO2.[Cl-] [BERBERINE CHLORIDE] .
// result not fulfilled

====

Tested on: A2780
Assay: Antiproliferative activity against human A2780 cells assessed as reduction in cell viability after 48 hrs by MTT assay
Format: functional, cell-based
Settings: A2780, 48 h
MEASURED_PROPERTY: pIC50
Just so you know, pIC50 here is -log10 of the concentration in molar units; reply with that number alone.

Use these answered entries as a reference point.
// query Need pIC50 of C=CCc1ccc(OCCC)c(-c2ccc(O)c(CC=C)c2)c1 , thanks.
// result 4.83

// query Value lookup for pIC50; key = C=CCc1ccc(OCCC)c(-c2ccc(OCCCCCc3c4[n+](cc5c(OC)c(OC)ccc35)CCc3cc5c(cc3-4)OCO5)c(CC=C)c2)c1
// result 5.85

// query Requested field: pIC50. Item: C=CCc1ccc(OCCCc2c3[n+](cc4c(OC)c(OC)ccc24)CCc2cc4c(cc2-3)OCO4)c(-c2ccc(O)c(CC=C)c2)c1
// result 5.52

// query Param item = C=CCc1ccc(O)c(-c2ccc(OC)c(CC=C)c2)c1 ; retrieve measured pIC50.
// result 4.83

// query Fill blank: measured pIC50 of the compound C=CCc1ccc(O)c(-c2ccc(OCCCCCCCCc3c4[n+](cc5c(OC)c(OC)ccc35)CCc3cc5c(cc3-4)OCO5)c(CC=C)c2)c1 is ____.
// result 5.82

***
// query Which value of pIC50 has been reported for C=CCc1ccc(O)c(-c2ccc(OCCCc3c4[n+](cc5c(OC)c(OC)ccc35)CCc3cc5c(cc3-4)OCO5)c(CC=C)c2)c1 in the records?
// result 5.81

// query Fill in the blank: the reported pIC50 of COc1cccc2c1C(=O)c1c(O)c3c(c(O)c1C2=O)C[C@@](O)(C(=O)CO)C[C@@H]3O[C@H]1C[C@H](N)[C@H](O)[C@H](C)O1 is ____.
// result 6.15

// query Tell me the measured pIC50 of C=CCc1ccc(OCCCCCc2c3[n+](cc4c(OC)c(OC)ccc24)CCc2cc4c(cc2-3)OCO4)c(-c2ccc(OC)c(CC=C)c2)c1 , please.
// result 5.87
